# system-name: T1, rat PTH-1 receptor (rat, UniProt P25961 27-591)
# T1 sequence (looked up): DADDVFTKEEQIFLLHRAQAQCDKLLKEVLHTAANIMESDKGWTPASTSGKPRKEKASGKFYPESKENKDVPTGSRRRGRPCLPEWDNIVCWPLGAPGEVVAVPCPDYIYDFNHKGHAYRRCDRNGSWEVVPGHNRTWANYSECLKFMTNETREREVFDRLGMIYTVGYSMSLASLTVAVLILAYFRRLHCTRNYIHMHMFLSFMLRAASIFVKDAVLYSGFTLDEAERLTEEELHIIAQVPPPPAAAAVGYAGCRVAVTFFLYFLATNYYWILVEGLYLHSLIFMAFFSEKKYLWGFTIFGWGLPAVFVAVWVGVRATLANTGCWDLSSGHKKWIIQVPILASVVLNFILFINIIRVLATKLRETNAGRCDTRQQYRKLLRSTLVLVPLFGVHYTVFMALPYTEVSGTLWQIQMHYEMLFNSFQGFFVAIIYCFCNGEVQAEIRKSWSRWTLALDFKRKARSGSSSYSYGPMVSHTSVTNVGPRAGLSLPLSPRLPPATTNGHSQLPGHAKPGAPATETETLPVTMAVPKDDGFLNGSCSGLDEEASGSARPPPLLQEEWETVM
# measurement-notes: cell-based or functional assay
Non-standard residues stand in square brackets, D forms with d. No end group written: not given here. Nle = CCCC[C@H](N)C(=O)O

binder	cAMP Emax, ROS 17/2.8 cells (picomole/well)
AVAEIQLMHARAKW-NH2 [[A3, A10, R11, A12, W14]rPTH(1-14)]	382
AVAEIQLMHAR-NH2 [[A3, A10, R11]rPTH(1-11)]	377
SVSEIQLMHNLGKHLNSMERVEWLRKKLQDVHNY-NH2 [[Tyr^34]human (h)PTH(1-34)NH2]	340
AVAEIQLMHARAKH-NH2 [[A3, A10, R11, A12]rPTH(1-14)]	395
AVAEIQLMHARAKHLNSMERVEWLRKKLQDVHNY-NH2 (also called peptide #7; #7) [[A1, A3, A10, R11, A12, Y34]hPTH(1-34)]	395
AVSEIQLMHNLGKH-NH2 [native rPTH(1-14)]	376
AVSEIQL[Nle]HNLGKHLASVER[Nle]QWLRKKLQDVHNY-NH2 [[Nle^8,21,Tyr^34]-rPTH(1-34)NH2]	364
